Tested On: Discoidin domain-containing receptor 2 (Homo sapiens) (UniProt Q16832)
Sequence (Q16832 whole entry, the tested form may be a part): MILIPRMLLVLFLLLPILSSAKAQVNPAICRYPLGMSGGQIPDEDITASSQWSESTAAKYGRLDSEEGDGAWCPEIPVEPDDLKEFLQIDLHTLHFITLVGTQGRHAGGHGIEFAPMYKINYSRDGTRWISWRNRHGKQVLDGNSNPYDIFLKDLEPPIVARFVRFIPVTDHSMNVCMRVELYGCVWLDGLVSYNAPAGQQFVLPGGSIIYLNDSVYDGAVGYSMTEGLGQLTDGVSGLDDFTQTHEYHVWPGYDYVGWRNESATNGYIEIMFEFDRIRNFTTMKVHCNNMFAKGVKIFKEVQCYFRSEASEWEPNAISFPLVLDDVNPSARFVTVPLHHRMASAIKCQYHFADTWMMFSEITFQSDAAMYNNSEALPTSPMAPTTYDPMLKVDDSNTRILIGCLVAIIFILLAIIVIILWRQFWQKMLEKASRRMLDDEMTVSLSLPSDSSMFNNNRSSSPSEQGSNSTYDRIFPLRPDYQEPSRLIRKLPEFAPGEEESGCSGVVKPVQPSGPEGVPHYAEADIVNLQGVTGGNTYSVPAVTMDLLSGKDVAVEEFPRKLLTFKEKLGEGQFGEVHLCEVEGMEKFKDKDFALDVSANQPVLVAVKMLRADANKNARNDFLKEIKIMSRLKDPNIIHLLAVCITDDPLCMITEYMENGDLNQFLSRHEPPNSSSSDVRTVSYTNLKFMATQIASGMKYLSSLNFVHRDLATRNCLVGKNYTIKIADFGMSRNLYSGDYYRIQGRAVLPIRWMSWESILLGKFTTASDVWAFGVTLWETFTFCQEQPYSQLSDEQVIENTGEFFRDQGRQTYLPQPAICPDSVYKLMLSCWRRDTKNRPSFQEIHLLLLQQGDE
Assay Context: at 1 µM
Quantity Name: residual activity (%)

- O=C1NC(=O)c2c1c1c3ccccc3[nH]c1n1cncc21: 85
- O=C(NC(NC(=S)Nc1ccc(F)c([N+](=O)[O-])c1)C(Cl)(Cl)Cl)C(c1ccccc1)c1ccccc1 (stereo not given): 102
- N#C/C(=C\c1ccc(O)c(O)c1)C(=O)NCc1ccccc1: 119
- O=C1C(Cl)=C(N2C(=O)CCC2=O)C(=O)c2ccccc21: 89
- COc1ccc2c(c1)c(C1=C(c3c[nH]c4ccccc34)C(=O)NC1=O)cn2CCCN(C)C: 111
